# test-name: Antitumor activity against Mus musculus (mouse) EAC xenografted in Mus musculus Swiss albino (mouse) assessed as non-viable cells at 50 mg/kg, ip qd for 7 days relative to control
# Type: functional, Ehrlich
# stated-conditions: route intraperitoneal
metric-name: Activity
Please report the result as a number followed by the unit.

Some molecules with recorded Activity:
[
  {
    "structure-smiles-string": "O=[N+]([O-])c1ccc(-c2nn(CNc3ccccn3)c(=S)o2)cc1",
    "test-result": "63.17%"
  },
  {
    "structure-smiles-string": "O=[N+]([O-])c1ccc(-c2nn(CNc3ccccc3)c(=S)o2)cc1",
    "test-result": "66.5%"
  },
  {
    "structure-smiles-string": "Oc1ccc(-c2nn(CNc3ccccn3)c(=S)o2)cc1",
    "test-result": "77.5%"
  },
  {
    "structure-smiles-string": "Cc1ccc(-c2nn(CNc3ccccn3)c(=S)o2)cc1",
    "test-result": "75.17%"
  }
]

Please look at the following molecule next.
### Prompt Which Activity is reported for this molecule? S=c1oc(-c2ccc(Cl)cc2Cl)nn1CNc1ccccn1
### Response 72.67%

---

# Test system: Mus musculus
# test-name: Antitumor activity against Mus musculus (mouse) EAC xenografted in Mus musculus Swiss albino (mouse) assessed as increase in average life span at 50 mg/kg, ip qd for 7 days relative to control
# Assay type: functional
# stated-conditions: 168 h, route intraperitoneal, read-out: Survival
# label = 1.0 if percent increase in average life span at 50 mg/kg < 50% else 0.0

Reference set, count: 4
[
  {
    "structure-smiles-string": "Oc1ccc(-c2nn(CNc3ccccn3)c(=S)o2)cc1",
    "class": 0.0
  },
  {
    "structure-smiles-string": "O=[N+]([O-])c1ccc(-c2nn(CNc3ccccc3)c(=S)o2)cc1",
    "class": 1.0
  },
  {
    "structure-smiles-string": "O=[N+]([O-])c1ccc(-c2nn(CNc3ccccn3)c(=S)o2)cc1",
    "class": 1.0
  },
  {
    "structure-smiles-string": "S=c1oc(-c2ccc(Cl)cc2Cl)nn1CNc1ccccn1",
    "class": 0.0
  }
]

Consider the additional compound presented here.
### Prompt Is 50% strictly greater than the compound's reported percent increase in average life span at 50 mg/kg? compound: Cc1ccc(-c2nn(CNc3ccccn3)c(=S)o2)cc1
### Response 0.0

---

# test-name: Antitumor activity against Mus musculus (mouse) EAC xenografted in Mus musculus Swiss albino (mouse) assessed as inhibition of tumor formation at 50 mg/kg, ip qd for 7 days relative to control
# Type: functional
# stated-conditions: Ehrlich, 168 h, route intraperitoneal
metric-name: inhibition in vivo at 50 mg/kg (%)
Answers are plain numbers, in %.

Past entries and their recorded results:
[
  {
    "structure-smiles-string": "Cc1ccc(-c2nn(CNc3ccccn3)c(=S)o2)cc1",
    "inhibition in vivo at 50 mg/kg (%)": 56.5
  },
  {
    "structure-smiles-string": "O=[N+]([O-])c1ccc(-c2nn(CNc3ccccc3)c(=S)o2)cc1",
    "inhibition in vivo at 50 mg/kg (%)": 56.5
  },
  {
    "structure-smiles-string": "Oc1ccc(-c2nn(CNc3ccccn3)c(=S)o2)cc1",
    "inhibition in vivo at 50 mg/kg (%)": 73.9
  },
  {
    "structure-smiles-string": "S=c1oc(-c2ccc(Cl)cc2Cl)nn1CNc1ccccn1",
    "inhibition in vivo at 50 mg/kg (%)": 52.2
  }
]

Turning now to a further record.
### Prompt Field request: inhibition in vivo at 50 mg/kg | item: O=[N+]([O-])c1ccc(-c2nn(CNc3ccccn3)c(=S)o2)cc1
### Response 60.8
